System: NCI-H23
PROTOCOL DETAILS: NCI tumour cell line growth inhibition, 48 h
Calls of active or inactive are those of the source. Rule as the data show it: active = GI50 up to about 1.1 µM and inactive = higher.
MEASURED METRIC: GI50

Consider the worked cases shown below.
CN1C(NCCO)=NS(=O)(=O)c2ccccc21
> 100 µM (inactive)
Fc1c(F)c(F)c(CSc2nc3ccccc3[nH]2)c(F)c1F
> 100 µM (inactive)
CCOC(=O)C1CCC(=O)N1C(=O)c1ccccc1 (stereo unspecified)
> 100 µM (inactive)
CC(=O)ON(C(C)=O)c1ccc(-c2nc3ccccc3s2)cc1C
52.7 µM (inactive)
CC1=C(C(N)=O)C(c2ccncc2)C(C#N)C(=O)N1 (stereo unspecified)
> 100 µM (inactive)
Cc1noc(C)c1/N=N/c1ccc2nonc2c1N
46.5 µM (inactive)

Lab note: CN1C(=O)C(/C=N/NC(=O)c2cccnc2)C(N)N(C)C1=O (stereo unspecified) gave GI50 of > 100 µM (inactive)

----------
Test system: NCI-H460
PROTOCOL DETAILS: NCI tumour cell line growth inhibition, 48 h
Active and inactive are the calls of the source. Cut-off read from the data, not from the text of the source: active = GI50 up to about 1.1 µM and inactive = higher.
Listing of recorded GI50 by entry.

NC(=O)N/N=C(/Cc1nc2ccc(C(=O)c3ccccc3)cc2nc1O)C(=O)Nc1ccc(C(F)(F)F)cc1[N+](=O)[O-]
65 µM (inactive)
COC(=O)c1cc(-c2c[nH]cc2C(=O)OCc2ccccc2)cn1S(=O)(=O)c1ccc(C)cc1
57.3 µM (inactive)
Cc1cc(C)n(-c2nc3ccccc3c(=O)[nH]2)n1
1.21 µM (inactive)
CC(=O)ON(C(C)=O)c1ccc(-c2nc3ccccc3s2)cc1C
21.3 µM (inactive)

Next compound, please.
Lab note: `Cn1c(COC(=O)Nc2ccccc2)c(COC(=O)Nc2ccccc2)c2ccc3cc(Cl)c(Cl)cc3c21` gave GI50 of 8.2 µM (inactive)

----------
System: SK-MEL-5
PROTOCOL DETAILS: NCI tumour cell line growth inhibition, 48 h
The source made the active and inactive calls. Rule as the data show it: active = GI50 up to about 1.1 µM and inactive = higher.
The categories you may choose from are true (1) = active, false (0) = inactive

Illustrative cases are given below, each with its answer.
O=C1Sc2cc3ccccc3cc2C(=O)Sc2ccc(Br)cc21
false (0)
CC1=C(C(N)=O)C(c2ccncc2)C(C#N)C(=O)N1 (stereo unspecified)
false (0)

Req: Hi, do you know how `CC[C@@H]1CC[C@@H]2[C@H](CC[C@]3(C)[C@@H](O)CC[C@@H]23)[C@H]1C(=O)O` came out in this test?
Resp: false (0)

Req: Hi, do you know how `Cc1cc(/C=C/c2cc[n+](C)c3ccccc23)c(O)c2ncccc12` came out in this test?
Resp: true (1)

Req: Hi, do you know how COc1ccc2c(c1)N(C(C)=O)CN1C(=O)CCC21 (stereo unspecified) came out in this test?
Resp: false (0)

Req: Hi, do you know how CC1=NN(C(=O)CC(=O)N(C(=O)c2ccccc2Cl)c2ccc(C)cc2)C(=O)C1/N=N/c1ccc([N+](=O)[O-])cc1 (stereo unspecified) came out in this test?
Resp: false (0)

Req: Hi, do you know how COc1cc2c(cc1OC)C(Cl)C(c1cc(OC)c(OC)c(OC)c1)=C2Cl (stereo unspecified) came out in this test?
Resp: false (0)

Req: Hi, do you know how N#CC(NNC(=O)Cc1ccccc1)c1ccccc1O (stereo unspecified) came out in this test?
Resp: false (0)

Req: Hi, do you know how `CC1(C)OC(=O)C(=Cc2ccc(O)cc2)C(=O)O1` came out in this test?
Resp: false (0)
